Data provenance is ChEMBL document CHEMBL5346971.

METHOD_SUMMARY: Half-life in human liver microsomes in presence of NADPH by LC-MS/MS analysis
Format: ADME, Microsome
EXPERIMENTAL_ENDPOINT: half-life (min)
Write the number in min without appending the unit.

The reported half-life of the compound O=C(NO)c1ccc(COc2no[n+]([O-])c2S(=O)(=O)c2ccccc2)cc1 was 5.4

* * *

TARGET_SYSTEM: Polyamine deacetylase HDAC10 (Homo sapiens)
Sequence (Q969S8 whole entry, the tested form may be a part): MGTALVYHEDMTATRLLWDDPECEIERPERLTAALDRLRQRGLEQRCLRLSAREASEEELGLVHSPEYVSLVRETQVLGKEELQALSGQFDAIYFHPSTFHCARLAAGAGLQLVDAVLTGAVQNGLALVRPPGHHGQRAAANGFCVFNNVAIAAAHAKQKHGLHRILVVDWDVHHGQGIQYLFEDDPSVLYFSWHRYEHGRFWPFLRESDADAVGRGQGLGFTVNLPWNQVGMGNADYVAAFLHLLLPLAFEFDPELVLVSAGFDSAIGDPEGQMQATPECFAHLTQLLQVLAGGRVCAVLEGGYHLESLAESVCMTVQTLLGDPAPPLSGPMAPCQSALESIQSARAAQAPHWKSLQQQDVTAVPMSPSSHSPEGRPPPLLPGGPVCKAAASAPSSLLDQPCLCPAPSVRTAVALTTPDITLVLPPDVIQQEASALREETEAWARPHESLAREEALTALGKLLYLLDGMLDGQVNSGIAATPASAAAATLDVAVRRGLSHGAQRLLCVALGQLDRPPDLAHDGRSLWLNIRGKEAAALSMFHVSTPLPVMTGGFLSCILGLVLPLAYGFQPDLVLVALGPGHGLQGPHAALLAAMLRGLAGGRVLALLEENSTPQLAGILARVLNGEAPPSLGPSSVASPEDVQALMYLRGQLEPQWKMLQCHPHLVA
METHOD_SUMMARY: Inhibition of N-terminal FLAG-tagged human recombinant HDAC10 (2 to 631 residues) expressed in baculovirus-infected Sf9 cells using Acetyl-Arg-His-Lys(acety1)-Lys-(acety1)-AMC as substrate peincubated with enzyme for 1 hr followed by substrate addition and measured after 30 mins by fluorescence based analysis
EXPERIMENTAL_ENDPOINT: IC50
Form entry: enter the amount, then its unit.

The reported IC50 of the compound O=C(NO)c1ccc(COc2no[n+]([O-])c2S(=O)(=O)c2ccccc2)cc1 was 1800 nM

* * *

METHOD_SUMMARY: Metabolic stability of the compound in human liver microsomes assessed as parent compound remaining measured after 60 mins in presence of NADPH by LC-MS/MS analysis
Assay type: ADME, Microsome
TEST_CONTEXT: read-out: Stability
EXPERIMENTAL_ENDPOINT: remaining at 1 h

The reported remaining at 1 h of the molecule O=C(NO)c1ccc(COc2no[n+]([O-])c2S(=O)(=O)c2ccccc2)cc1 was < 0.33%

* * *

TARGET_SYSTEM: Class 1 histone deacetylase (Homo sapiens) (UniProt Q13547+O15379+Q92769+Q9BY41)
Sequence (O15379 whole entry, looked up): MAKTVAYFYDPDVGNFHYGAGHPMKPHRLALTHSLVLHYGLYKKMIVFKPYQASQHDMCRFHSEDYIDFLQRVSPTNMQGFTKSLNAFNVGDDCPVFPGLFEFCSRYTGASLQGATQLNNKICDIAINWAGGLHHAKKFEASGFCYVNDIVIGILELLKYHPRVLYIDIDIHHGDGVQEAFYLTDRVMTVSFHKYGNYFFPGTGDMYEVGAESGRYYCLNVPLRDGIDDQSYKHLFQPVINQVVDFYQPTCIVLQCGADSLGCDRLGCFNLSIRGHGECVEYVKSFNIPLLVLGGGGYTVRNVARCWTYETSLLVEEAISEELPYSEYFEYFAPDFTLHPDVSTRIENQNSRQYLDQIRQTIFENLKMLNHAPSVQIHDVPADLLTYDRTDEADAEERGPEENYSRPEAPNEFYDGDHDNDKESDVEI
Sequence (Q13547 whole entry, looked up): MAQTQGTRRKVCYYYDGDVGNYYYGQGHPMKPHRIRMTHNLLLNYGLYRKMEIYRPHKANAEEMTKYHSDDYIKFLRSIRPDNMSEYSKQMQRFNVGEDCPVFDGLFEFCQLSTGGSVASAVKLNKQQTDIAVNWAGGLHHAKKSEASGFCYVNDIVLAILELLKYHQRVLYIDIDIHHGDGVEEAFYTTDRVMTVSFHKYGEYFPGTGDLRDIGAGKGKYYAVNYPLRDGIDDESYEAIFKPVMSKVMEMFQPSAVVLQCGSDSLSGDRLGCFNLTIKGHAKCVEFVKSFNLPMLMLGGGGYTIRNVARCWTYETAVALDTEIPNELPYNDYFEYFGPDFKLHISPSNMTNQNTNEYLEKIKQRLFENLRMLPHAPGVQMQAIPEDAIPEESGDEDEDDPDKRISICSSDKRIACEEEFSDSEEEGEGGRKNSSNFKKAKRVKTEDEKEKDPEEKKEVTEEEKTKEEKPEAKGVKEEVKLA
Sequence (Q92769 whole entry, looked up): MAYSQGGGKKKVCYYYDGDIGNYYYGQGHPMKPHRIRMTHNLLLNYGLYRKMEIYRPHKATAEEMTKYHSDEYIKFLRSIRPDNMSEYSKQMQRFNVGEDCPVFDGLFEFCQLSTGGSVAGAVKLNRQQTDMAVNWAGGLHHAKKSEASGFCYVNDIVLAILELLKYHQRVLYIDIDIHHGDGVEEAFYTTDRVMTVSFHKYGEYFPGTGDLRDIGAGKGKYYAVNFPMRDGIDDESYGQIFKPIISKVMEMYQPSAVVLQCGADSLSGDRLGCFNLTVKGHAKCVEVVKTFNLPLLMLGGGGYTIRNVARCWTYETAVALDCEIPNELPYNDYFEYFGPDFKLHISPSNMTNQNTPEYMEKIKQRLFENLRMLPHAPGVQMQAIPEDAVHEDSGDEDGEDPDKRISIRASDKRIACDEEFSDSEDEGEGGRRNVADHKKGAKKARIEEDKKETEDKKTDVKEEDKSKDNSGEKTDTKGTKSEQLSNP
Sequence (Q9BY41 whole entry, looked up): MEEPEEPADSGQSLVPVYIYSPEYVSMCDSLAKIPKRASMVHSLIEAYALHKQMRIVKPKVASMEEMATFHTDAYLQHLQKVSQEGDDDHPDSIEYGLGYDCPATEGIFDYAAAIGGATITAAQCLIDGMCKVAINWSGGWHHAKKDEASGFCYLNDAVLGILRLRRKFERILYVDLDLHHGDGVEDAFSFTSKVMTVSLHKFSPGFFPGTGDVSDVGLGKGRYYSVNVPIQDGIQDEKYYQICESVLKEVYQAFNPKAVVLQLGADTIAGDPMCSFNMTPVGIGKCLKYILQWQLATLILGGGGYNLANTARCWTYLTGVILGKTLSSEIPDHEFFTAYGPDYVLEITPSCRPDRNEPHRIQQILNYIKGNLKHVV
METHOD_SUMMARY: Inhibition of class 1 HDAC in human A549 cells assessed as acetyl histone H4 level at 2 uM incubated for 5 hrs by western blot analysis relative to control
Assay type: cell-based
EXPERIMENTAL_ENDPOINT: fold change (FC)
Would you mind answering with just the numeric figure?

{"columns": ["STRUCTURE_SMILES_STRING", "TARGET_SYSTEM", "fold change (FC)"],
 "data": [
  ["O=C(NO)c1ccc(COc2no[n+]([O-])c2S(=O)(=O)c2ccccc2)cc1", "Class 1 histone deacetylase (Homo sapiens) (UniProt Q13547+O15379+Q92769+Q9BY41)", 1.6],
  ["O=C(NO)c1cccc(Oc2no[n+]([O-])c2S(=O)(=O)c2ccccc2)c1", "Class 1 histone deacetylase (Homo sapiens) (UniProt Q13547+O15379+Q92769+Q9BY41)", 0.2],
  ["COc1cc(C(=O)NO)ccc1Oc1no[n+]([O-])c1S(=O)(=O)c1ccccc1", "Class 1 histone deacetylase (Homo sapiens) (UniProt Q13547+O15379+Q92769+Q9BY41)", 0.4],
  ["O=C(NO)c1ccc(Oc2no[n+]([O-])c2S(=O)(=O)c2ccccc2)cc1", "Class 1 histone deacetylase (Homo sapiens) (UniProt Q13547+O15379+Q92769+Q9BY41)", 0.5],
  ["O=C(CCCCCOc1no[n+]([O-])c1S(=O)(=O)c1ccccc1)NO", "Class 1 histone deacetylase (Homo sapiens) (UniProt Q13547+O15379+Q92769+Q9BY41)", 2.1]
]}

Entry O=S(=O)(c1ccccc1)c1c(OCCCCCCO)no[n+]1[O-] : fold change (FC) on Class 1 histone deacetylase (Homo sapiens) (UniProt Q13547+O15379+Q92769+Q9BY41) = 1.3

Entry O=C(/C=C/COc1no[n+]([O-])c1S(=O)(=O)c1ccccc1)NO : fold change (FC) on Class 1 histone deacetylase (Homo sapiens) (UniProt Q13547+O15379+Q92769+Q9BY41) = 0.5

Entry O=C(/C=C/c1ccc(Oc2no[n+]([O-])c2S(=O)(=O)c2ccccc2)cc1)NO : fold change (FC) on Class 1 histone deacetylase (Homo sapiens) (UniProt Q13547+O15379+Q92769+Q9BY41) = 1.7
